This collection of values is drawn from patent US4021449A.

# key: entry, value: Distribution Ratio (butanol/water)
experiment: Lipid-solubility: distribution ratio in butanol/water (1:1) (Table 2); assay type: physicochemical; settings: in butanol/water (1:1) at 25° C

{"MOLECULE": "COC12C(COC(N)=O)C3=C(C(=O)C(C)=C(N)C3=O)N1CC1C2N1C(C)=O (stereo not shown) [1a-acetyl mitomycin C, reference compound]", "TEST RESULT": 3.749}

Reported Distribution Ratio (butanol/water) ( CCCCCCCCCC(=O)N1C2CN3C4=C(C(=O)C(N)=C(C)C4=O)C(COC(N)=O)C3(OC)C21 (stereo not shown) ) = 7.889

Reported Distribution Ratio (butanol/water) ( CCCCC/C=C\C/C=C\CCCCCCCC(=O)N1C2CN3C4=C(C(=O)C(N)=C(C)C4=O)C(COC(N)=O)C3(OC)C21 (stereo not shown) ) = 9.665

Reported Distribution Ratio (butanol/water) ( CCCC(=O)N1C2CN3C4=C(C(=O)C(N)=C(C)C4=O)C(COC(N)=O)C3(OC)C21 (stereo not shown) [1a-butyryl mitomycin C, reference compound] ) = 4.402
